The reported numbers originate from PubChem BioAssay (NCI).

- System: UO-31 renal
- assay_method_text: NCI tumour cell line growth inhibition, 48 h
Listed here are molecules together with their documented TGI.

molecule	endpoint_label	val
COc1ccc(Nc2nccc(N3CCN(c4c5ccc(Cl)cc5nc5ccc(OC)cc45)CC3)n2)cc1	TGI	> 100 µM
C[C@H]1OC(=O)[C@@H]2N=NN(Cc3ccccc3)[C@H]12	TGI	> 100 µM
CC#CC(O)(C(=O)OC1CC(C)N(C)C(C)(C)C1)C1CCCC1 (stereo not drawn)	TGI	> 100 µM

Data request: Which TGI reading was recorded for the molecule O=C1/C(=C/c2ccc([N+](=O)[O-])cc2)COc2ccc(O)cc21 ?
Data returned: 3.6 µM

Data request: Check CC(C)/C(Cl)=N/OC(=O)Nc1ccc(OC(F)(F)F)cc1 too.
Data returned: 23.8 µM

Data request: Now this one: c1ccc(C2CC(=NC3CCCCC3)Nc3ccccc3N2)cc1 (stereo not drawn)
Data returned: > 100 µM

Data request: How about COc1cccc2c1OCC1Cc3ccccc3OC21 (stereo not drawn) ?
Data returned: > 100 µM

Data request: Queued: CCCCCCCCCCCCCCCCCCOCC(COCCOCC[N+]1(CCCCCC(=O)[O-])CCCC1)Oc1ncccn1 (stereo not drawn)
Data returned: 23.6 µM

----------
- System: MDA-MB-231 breast
- assay_method_text: NCI tumour cell line growth inhibition, 48 h
endpoint_label: TGI (µM)
Please respond with the number in µM and leave the unit unwritten.

compound_structure	unit_annotation	TGI
O=C1/C(=C/c2cccc([N+](=O)[O-])c2)Sc2scc(-c3ccc([N+](=O)[O-])cc3)[n+]21	µM	72.5

Data request: Look up TGI for this molecule: CCOC(=O)N1CCN(CCCCCOc2ccccc2C2CCCCC2)CC1
Data returned: 21.5

----------
- Tested on: HT29 colon
- assay_method_text: NCI tumour cell line growth inhibition, 48 h
Reported TGI by item:

Some entries whose results are on file:
compound	TGI
COc1ccc(-n2nc(C)c3c(Nc4ccc(NC(=O)Nc5ccc(Cl)c(C(F)(F)F)c5)cc4)ncnc32)cc1	4.17 µM
CC(C)(C)NCC(COc1ccc([N+](=O)[O-])cc1)OP(c1ccccc1)c1ccccc1 (stereo not given)	> 100 µM
CC(=Nc1ccc(S(N)(=O)=O)cc1)c1c(O)[nH]c2ccccc12	> 25 µM
Clc1ccc(/C(=C\c2ccccc2)Cn2ccnc2)cc1	30.1 µM
O=C1C2=Nc3ccccc3C(O)(C(=O)O)N2c2ccccc21 (stereo not given)	49.2 µM
CC1=NN(C(=O)c2ccncc2)C(=O)C1N=Nc1ccc(F)cc1 (stereo not given)	> 100 µM
COc1cccc2c1OCC1Cc3ccccc3OC21 (stereo not given)	> 100 µM
CCCCCCCCCCCCCCCCCCOCC(COCCOCC[N+]1(CCCCCC(=O)[O-])CCCC1)Oc1ncccn1 (stereo not given)	13.7 µM
[2H]c1nc(=Nc2cc(NC(=O)C=C)c(N(C)CCN(C)C)cc2OC)[nH]c(-c2cn(C([2H])([2H])[2H])c3ccccc23)c1[2H]	3.26 µM

Here's the next entry for you.
Data request: For the compound shown here, CN(C)CCCNC(=O)c1c(O)c2ccccc2n(C)c1=O , give the reported TGI.
Data returned: > 100 µM

----------
- System: SW-620 colon
- assay_method_text: NCI tumour cell line growth inhibition, 48 h
endpoint_label: GI50

Data request: Requested read-out: GI50. Entry: [2H]c1nc(=Nc2cc(NC(=O)C=C)c(N(C)CCN(C)C)cc2OC)[nH]c(-c2cn(C([2H])([2H])[2H])c3ccccc23)c1[2H]
Data returned: 1.86 µM

Data request: What about this molecule? CC(=Nc1ccc(S(N)(=O)=O)cc1)c1c(O)[nH]c2ccccc12
Data returned: > 18.5 µM

Data request: Then this molecule: O=C1c2ccccc2-c2c1c1ccccc1c(=O)n2CCNCCn1c2c(c3ccccc3c1=O)C(=O)c1ccccc1-2
Data returned: > 25 µM

Data request: Moving on to O=C1c2ccccc2-c2c1c1c(NCCCO)nc3ccccc3c1n2Cc1ccccc1
Data returned: 27.4 µM

----------
- System: SW-620 colon
- assay_method_text: NCI tumour cell line growth inhibition, 48 h; in the data active means GI50 below about 0.43 µM; inactive means the rest
Please state which outcome applies, choosing from active, inactive

compound_structure	answer_label
O=C(NCCN1CCNCC1)c1ccc(Nc2nc3ccccc3c3occc23)cc1	inactive
COc1ccc(C(=O)c2nc3ccccc3n2CC(=O)c2ccc(Cl)cc2)cc1	inactive
Nc1cc(-c2ccc(Cl)cc2)nn1-c1nnc(/C=C/c2ccco2)c(=O)[nH]1	inactive
COc1ccc(-n2nc(C)c3c(Nc4ccc(NC(=O)Nc5ccc(Cl)c(C(F)(F)F)c5)cc4)ncnc32)cc1	inactive
CC(C)[O-].CC(C)[O-].CN(CCN(C)Cc1cc(F)cc(F)c1[O-])Cc1cc(F)cc(F)c1[O-].[Ti+4]	inactive

Data request: Status in this test for COc1ccc(Nc2nccc(N3CCN(c4c5ccc(Cl)cc5nc5ccc(OC)cc45)CC3)n2)cc1 ?
Data returned: inactive

Data request: How about CCN(CC)c1ccc(/C=C/C2=[N+](C)c3ccccc3C2(C)C)c(C)c1 ?
Data returned: active

Data request: Also need COc1cccc(COc2cc(-n3cnc4ccccc43)sc2C(N)=O)c1 , thanks.
Data returned: inactive

Data request: Same for CCNCCNc1cc(-c2ccc(C#N)cc2)c(C#N)c2nc3ccccc3n12
Data returned: inactive

Data request: Same again, this time with O=C1/C(=C/c2ccc([N+](=O)[O-])cc2)COc2ccc(O)cc21
Data returned: inactive

----------
- Tested on: HOP-92 NSCLC
- assay_method_text: NCI tumour cell line growth inhibition, 48 h
endpoint_label: TGI (µM)
Kindly answer with a numeric value in µM, unit omitted.

compound	TGI (µM)
CC(C)C1=C(O)C2=C(C(=O)C1=O)C1(C)CCCC(C)(C)C1C(O)C2OC=O (centres undefined)	20.1

Data request: # input compound: C=C1C(=O)C23C(O)CC4C5(C)CCCC4(C(O)OC5)C2C(OC(C)=O)CC1C3O (centres undefined) ; wanted: its TGI
Data returned: 14.6

Data request: N#CC(C#N)=c1c2nsnc2c(=C(C#N)C#N)c2nsnc12 ?
Data returned: 3.35

Data request: Cool, now CN(C)c1ccc(Cc2cc3c(O)ccc(O)c3cc(Cc3ccc(N(C)C)cc3)c2=O)cc1
Data returned: 14.5

Data request: Would you mind doing Nc1cc(-c2ccc(Cl)cc2)nn1-c1nnc(/C=C/c2ccco2)c(=O)[nH]1 as well?
Data returned: 16.7

----------
- System: KM12 colon
- assay_method_text: NCI tumour cell line growth inhibition, 48 h
endpoint_label: TGI

compound	measured_target	val
C=CC1=C(C)C2=NC1=CC1=NC(=CC3=C(C)C4=C(O)[C@H](C(=O)OC)C(=C5NC(=C2)[C@@H](C)[C@@H]5CCC(=O)O)C4=N3)C(CC)=C1C	KM12 colon	> 20.5 µM
COP(=O)(OC)C(Nc1ccc(Cc2ccc(NC(c3ccco3)P(=O)(OC)OC)cc2)cc1)c1ccco1 (stereo not drawn)	KM12 colon	> 100 µM

Shift focus to the following entry.
Data request: Query: TGI; subject: CC1(C)OC2COC3([C@@H]4OC(C)(C)O[C@@H]4CO)OC(C)(C)OC3C2O1 (stereo partly drawn)
Data returned: > 100 µM

----------
- System: OVCAR-8 ovarian
- assay_method_text: NCI tumour cell line growth inhibition, 48 h
endpoint_label: TGI

Take a look at these entries with their results.
compound	TGI
COC(=O)N1N=C(c2ccccc2)C1c1ccccc1 (configuration not stated)	94 µM
COc1ccc(Nc2nccc(N3CCN(c4c5ccc(Cl)cc5nc5ccc(OC)cc45)CC3)n2)cc1	> 100 µM
CC(C)[O-].CC(C)[O-].CN(CCN(C)Cc1cc(F)cc(F)c1[O-])Cc1cc(F)cc(F)c1[O-].[Ti+4]	6.55 µM
Cc1nc(-c2cccnc2)sc1C(=O)/C=C/c1cccc([N+](=O)[O-])c1	> 100 µM
COC(=O)C1C(=O)N(CCc2c[nH]c3ccccc23)C[C@@H]2CCC(=O)C[C@H]12 (some centres not stated)	> 100 µM

Data request: Need TGI of CCOC(=O)C(NC(=O)Nc1ccc(Cl)cc1)(OC)C(F)(F)F (configuration not stated) , thanks.
Data returned: > 100 µM

Data request: Moving on to the next compound: Cc1c(C)c(CC(=O)N2CC2)c(C)c(C)c1CC(=O)N1CC1
Data returned: > 49.6 µM

Data request: Then this compound: COc1ccc(C(=O)c2nc3ccccc3n2CC(=O)c2ccc(Cl)cc2)cc1
Data returned: > 100 µM

Data request: Also need CC1(C)N=C2C(=O)c3c([nH]c4ccccc34)[C@]3(C)CCC1CC23 (some centres not stated) , thanks.
Data returned: > 6.25 µM

Data request: Another: CN(C)C(=S)Nc1nnc(Nc2ccccc2)s1
Data returned: > 100 µM

Data request: Queued: N#Cc1c(-c2ccco2)cc(-c2ccccc2)[nH]c1=O
Data returned: > 100 µM

Data request: Another compound: CCOC(=O)c1c(SCCN2CCOCC2)n(-c2ccccc2)c(=S)n(-c2ccccc2)c1=O
Data returned: > 100 µM

Data request: // repeat for c1ccc(C2CC(=NC3CCCCC3)Nc3ccccc3N2)cc1 (configuration not stated) and report
Data returned: > 100 µM

Data request: Check O=C(c1cccs1)C1NO[N+]([O-])=C1c1cccs1 (configuration not stated) too.
Data returned: > 21.9 µM

Data request: Continue with CON(C)C(=O)C1CCCO1 (configuration not stated)
Data returned: > 100 µM

Data request: And then CCOC(=O)C1=CC(C)(C(=O)OCC)Nc2c(nc(N)[nH]c2=O)N1 (configuration not stated) , what is it?
Data returned: > 10 µM

Data request: Proceed to CCOC(OC1=C(C#N)CCCC1)C(CC)[Se]c1ccccc1 (configuration not stated)
Data returned: 34.7 µM

Data request: Would you kindly repeat that for CCCCCCCCCCCC1CC(=O)NCCCN(C)CCCCN(C)CCCN1C (configuration not stated) ?
Data returned: 3.33 µM

Data request: Now consider Cc1c(-c2ccccc2)[nH]n(C2=NCCN2)c1=O and answer again.
Data returned: > 100 µM

Data request: Next: Cn1c(=O)nc2n(-c3ccc(Cl)c(C(F)(F)F)c3)c3ccccc3nc-2c1=O
Data returned: 83.1 µM

Data request: Also CC1=NNC(=O)C1C1CC(c2c[nH]c3ccccc23)=NN=C1Cl (configuration not stated) , if possible.
Data returned: > 100 µM

Data request: Input O=c1[nH]c2cc([N+](=O)[O-])ccc2nc1/C(=N\Nc1ccccc1)C(O)c1ccc2c(c1)OCO2 (configuration not stated)
Data returned: > 100 µM
